The following compounds are shown together with reported cytotoxicity at 10 µM values.
# experiment_summary: Toxicity liver stage against HepG2, at 10uM
# Type: cell-based
# Design: test concentration 10 uM, cell line HepG2-A16-CD81EGFP
# recorded_conditions: human, HepG2-A16-CD81EGFP cells; read-out: INHIBITION
State just the number; it will be interpreted in %.

1) COc1ccc2c(c1)NC(C1CCN(C(=O)C(C)C)CC1)NS2(=O)=O (centres undefined) :: -4.66
2) O=C(c1cscn1)N1C[C@H]2CN(Cc3nccs3)C[C@H]2C1 :: -65.4
3) CC(C)CC(NC(=O)c1cc(C2CC2)n[nH]1)c1ncnn1C (centres undefined) :: 4.93
4) CCc1ncncc1C(=O)N1CCCN(Cc2ccccc2C)CC1 :: 0.977
5) Cc1nc(C)c(S(=O)(=O)NC(=O)c2sccc2C)s1 :: 0.25

Exercise: Which cytotoxicity at 10 µM value is on record for CN1CCN(C[C@@H]2OC[C@H]3CN(Cc4cccc(F)c4)CC[C@H]32)CC1 ?
Key: -10.3

Exercise: Here is the next compound: CN(Cc1cc(C2CC2)[nH]n1)C(=O)C(c1cccnc1)N1CCCC1 (centres undefined)
Key: -48.1

Exercise: Here is the next compound: COc1ccccc1-n1cc(C(=O)NCCn2nc(C)nc2C)cn1
Key: 9.27

Exercise: Here is the next compound: COc1ccc2c(c1OC)Cc1c-2nc(N)c(C#N)c1C1CCOC1 (centres undefined)
Key: 28.6

Exercise: Here is the next compound: Cc1ccc(CNC(=O)NC(C)CCS(C)(=O)=O)cc1F (centres undefined)
Key: -146

Exercise: Here is the next compound: Cc1noc(CN2CCCC(Cn3nc(C)nc3C)C2)n1 (centres undefined)
Key: -5.04

Exercise: Here is the next compound: CCN1CC2(CC1=O)CN(Cc1cnn(C)c1)CCN(C(=O)N(C)C)C2 (centres undefined)
Key: -1.9

Exercise: Here is the next compound: CC(C)c1ncncc1C(=O)NCCN1CCOCC1
Key: -0.103

Exercise: Here is the next compound: O=C(Cc1ccc2c(c1)CCO2)N1CCN(c2ccccn2)CC1
Key: -13.6

Exercise: Here is the next compound: COCCN1CCN(CC(=O)NC2(C#N)CCCC2)CC1C (centres undefined)
Key: 10.7

Exercise: Here is the next compound: c1c(CN2CCOCC2)nc2n1CCN(CC1CC1)C2
Key: 2.73

Exercise: Here is the next compound: O=C1CCC2(CCCN(c3ncc(F)cn3)CC2)N1CC1CC1 (centres undefined)
Key: -0.291

Exercise: Here is the next compound: COc1ccc(S(=O)(=O)NC(=O)c2ccccc2F)cc1OC
Key: -2.72
